- Experiment Notes: Metabolic stability evaluation, human liver microsome experiment
- Type: in vitro ADME
- Setup Conditions: human liver microsomes, pH 7.4, 1 μM compound, 0.5 mg/mL protein, read-out: CL human liver microsome experiment
# microsomal CLint at 1 μM per entry

[
  {
    "Molecule": "Cn1cc(-c2cc3c(N4CCN(c5ncc([C@](C)(N)c6ccc(F)cc6)cn5)CC4)ncnn3c2)cn1 [Compound A, reference compound]",
    "microsomal CLint at 1 μM, µL/min/mg": 28.8
  },
  {
    "Molecule": "[2H]C1([2H])N(c2ncc([C@](N)(c3ccc(F)cc3)C([2H])([2H])[2H])cn2)C([2H])([2H])C([2H])([2H])N(c2ncnn3cc(-c4cnn(C)c4)cc23)C1([2H])[2H]",
    "microsomal CLint at 1 μM, µL/min/mg": 24.2
  },
  {
    "Molecule": "[2H]C([2H])([2H])n1cc(-c2cc3c(N4CCN(c5ncc([C@@](N)(c6ccc(F)cc6)C([2H])([2H])[2H])cn5)CC4)ncnn3c2)cn1",
    "microsomal CLint at 1 μM, µL/min/mg": 13
  },
  {
    "Molecule": "[2H]C1([2H])N(c2ncc([C@@](N)(c3ccc(F)cc3)C([2H])([2H])[2H])cn2)C([2H])([2H])C([2H])([2H])N(c2ncnn3cc(-c4cnn(C)c4)cc23)C1([2H])[2H]",
    "microsomal CLint at 1 μM, µL/min/mg": 13.1
  },
  {
    "Molecule": "[2H]C([2H])([2H])n1cc(-c2cc3c(N4CCN(c5ncc([C@](N)(c6ccc(F)cc6)C([2H])([2H])[2H])cn5)CC4)ncnn3c2)cn1",
    "microsomal CLint at 1 μM, µL/min/mg": 27
  }
]
